Tested Target: Cathepsin D (Homo sapiens, UniProt P07339)
Sequence (P07339 65-162 limits assumed): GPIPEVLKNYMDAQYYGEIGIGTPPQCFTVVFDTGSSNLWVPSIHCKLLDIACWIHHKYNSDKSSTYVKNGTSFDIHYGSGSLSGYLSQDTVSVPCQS
Sequence (P07339 169-412 limits assumed): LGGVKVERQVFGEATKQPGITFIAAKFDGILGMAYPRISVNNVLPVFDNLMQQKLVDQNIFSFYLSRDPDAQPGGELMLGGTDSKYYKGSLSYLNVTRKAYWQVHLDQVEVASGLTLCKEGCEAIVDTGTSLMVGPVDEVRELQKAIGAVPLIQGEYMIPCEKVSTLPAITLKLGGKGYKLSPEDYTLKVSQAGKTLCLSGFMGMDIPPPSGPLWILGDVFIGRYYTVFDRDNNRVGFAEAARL
Assay Explanation: Enzyme Inhibition Assay
Protocol Conditions: pH 4.5; 22 °C
Quantity Measured: IC50 (µM)
Give bare numbers, in µM.

Tell me the measured IC50 of `CCc1cn2c3c(cc(C(=O)N[C@@H](Cc4ccccc4)[C@H](O)CNC4CCOCC4)cc13)OS(=O)(=O)CC2` , please.
0.13

----------
Tested Target: Beta-secretase 2 (Homo sapiens, UniProt Q9Y5Z0)
Sequence (Q9Y5Z0 whole entry): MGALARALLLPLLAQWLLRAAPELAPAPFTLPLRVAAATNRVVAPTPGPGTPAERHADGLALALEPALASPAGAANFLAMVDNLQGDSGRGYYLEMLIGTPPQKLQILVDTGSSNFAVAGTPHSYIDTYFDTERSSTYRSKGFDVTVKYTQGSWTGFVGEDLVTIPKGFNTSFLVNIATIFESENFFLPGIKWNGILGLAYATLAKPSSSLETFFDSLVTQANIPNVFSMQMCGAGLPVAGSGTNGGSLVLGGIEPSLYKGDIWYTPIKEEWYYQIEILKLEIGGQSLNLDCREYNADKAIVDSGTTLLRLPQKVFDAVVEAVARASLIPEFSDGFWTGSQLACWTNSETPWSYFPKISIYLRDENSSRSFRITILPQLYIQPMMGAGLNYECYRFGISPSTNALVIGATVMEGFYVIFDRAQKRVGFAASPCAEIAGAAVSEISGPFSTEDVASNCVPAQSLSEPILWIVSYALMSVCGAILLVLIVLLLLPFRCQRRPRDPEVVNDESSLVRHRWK
Quantity Measured: IC50 (nM)
One number for each entry, in nM.

Dear colleague, I am looking for the recorded IC50 of the following compound: CCc1cn2c3c(cc(C(=O)N[C@@H](Cc4ccccc4)[C@H](O)CNC4CCOCC4)cc13)OS(=O)(=O)CC2 [sulfone tricyclic analogue, 19]
450
